Experiment: Step-down Passive Avoidance Test (Mondadori and Waser): memory improvement
Assay type: in vivo
Conditions: 0,1 mg/kg i.p.; significance by Mann-Whitney U test
Procedure: Insbesondere zeigen die Verbindungen der Formel I eine starke gedächtnisverbessernde Wirkung im Step-down Passive Avoidance Test nach Mondadori und Waser, Psychopharmacology 63, 297-300 (1979). Die Substanzen sind wirksam bei intraperitonealer Gabe 30 Minuten vor dem Lernversuch (wirksame Dosen 0,1, 1, 10 mg/kg). […]
quantity_measured: Gedächtnisverbesserung

{"compound": "COC(=O)C1=CCN(CCc2c[nH]c3ccccc23)CC1 [Isomere C]", "quantity_measured": "Gedächtnisverbesserung", "experimental_value": "keinen"}
{"compound": "CCOC(=O)C1=CCCN(Cc2c[nH]c3ccccc23)C1 [Isomere B]", "quantity_measured": "Gedächtnisverbesserung", "experimental_value": "keinen"}
{"compound": "COC(=O)C1=CN(CCc2c[nH]c3ccccc23)CCC1 [Isomere A]", "quantity_measured": "Gedächtnisverbesserung", "experimental_value": "keinen"}

These measurements were taken from patent EP0187619A2.
